TEST_SYSTEM: T1, his-tagged human CDH6 extracellular region protein (hCDH6 ECD-his) (human, UniProt P55285 19-615)
T1 construct: also called Human CDH6-his; hCDH6-his; not shown: his tag
T1 sequence: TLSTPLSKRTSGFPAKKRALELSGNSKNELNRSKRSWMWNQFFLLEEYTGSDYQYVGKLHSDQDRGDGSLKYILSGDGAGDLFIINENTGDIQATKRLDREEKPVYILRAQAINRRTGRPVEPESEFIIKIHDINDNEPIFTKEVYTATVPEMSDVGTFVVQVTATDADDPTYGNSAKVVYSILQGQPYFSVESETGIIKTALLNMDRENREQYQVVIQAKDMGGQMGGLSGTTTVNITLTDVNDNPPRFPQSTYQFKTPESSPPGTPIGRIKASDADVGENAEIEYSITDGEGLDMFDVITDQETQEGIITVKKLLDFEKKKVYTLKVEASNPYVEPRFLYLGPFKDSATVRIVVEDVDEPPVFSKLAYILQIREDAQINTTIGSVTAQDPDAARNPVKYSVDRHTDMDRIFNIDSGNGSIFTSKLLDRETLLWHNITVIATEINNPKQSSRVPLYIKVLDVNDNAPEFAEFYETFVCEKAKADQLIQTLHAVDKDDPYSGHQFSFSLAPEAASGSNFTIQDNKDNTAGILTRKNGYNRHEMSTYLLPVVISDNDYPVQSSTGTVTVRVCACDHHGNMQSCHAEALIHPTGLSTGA
METHOD_SUMMARY: ELISA, coated antigen
pEC50: −log10 of the molar value.
Measured pEC50, listed per entry.

BINDER	pEC50
hCDH6-6-H1L4 (antibody, V domains shown, Humanized; also called hCDH6-6-HIL4) VH: EVQLVQSGAEVKKPGASVKVSCKASGYTFTDYYMAWVRQAPGQGLEWMGYIFPNSGGTDYSQKFKGRVTMTVDKSTSTVYMELSSLRSEDTAVYYCARELGADYGDYYAMDHWGQGTTVTVSS VL: DIQMTQSPSSLSASVGDRVTITCRASENIDSYLAWYQQKPGKSPKLLVYSATLLADGVPSRFSGSGSGTDYTLTISSLQPEDFARYYCQHYYRTPPTFGQGTKLEIK	10.68
hCDH6-6-H1L3 (antibody, V domains shown, Humanized) VH: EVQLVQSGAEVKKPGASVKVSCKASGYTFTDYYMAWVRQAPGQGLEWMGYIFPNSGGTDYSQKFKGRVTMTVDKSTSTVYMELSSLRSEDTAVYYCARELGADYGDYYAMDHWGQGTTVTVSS VL: DIQMTQSPSSLSASVGDRVTITCRASENIDSYLAWYQQKPGKSPQLLVYSATLLADGVPSRFSGSGSGTDYTLTISSLQPEDFATYYCQHYYRTPPTFGQGTKLEIK	10.51
hCDH6-6-H3L3 (antibody, V domains shown, Humanized) VH: EVQLVQSGAEVKKPGASVKVSCKASGYTFTDYYMAWVRQAPRQGLEWMGYIFPNSGGTDYSQKFKGRVTMTVDKSTSTVYMELSSLRSEDTAVYYCARELGADYGDYYAMDHWGQGTTVTVSS VL: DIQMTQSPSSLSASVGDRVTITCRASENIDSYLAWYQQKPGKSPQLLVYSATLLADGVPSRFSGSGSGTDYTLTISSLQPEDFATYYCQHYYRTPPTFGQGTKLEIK	10.51
